- experimental_protocol: Inhibition of P-gp in human MCF7/ADR cells assessed as reversal of multidrug resistance at 10 uM by measuring EC50 for adriamycin-induced cytotoxicity after 48 hrs by SRB colorimetric assay
- assay_setup: nci/adr-res
Binary label based on EC50 with cut-off 10 µM: below gives rule met, not below gives rule not met.

Does C=C1CC[C@H]2[C@@H](/C=C(\C)C(=O)[C@@]3(O)C[C@H](C)[C@H](O)[C@@H]3[C@H]1OC(=O)CCCCC)C2(C)C have EC50 strictly under 10 µM?
rule not met

Does C=C1CC[C@H]2[C@@H](/C=C(\C)C(=O)[C@@]3(O)C[C@H](C)[C@H](OC(=O)CCC)[C@@H]3[C@H]1OC(=O)CCC)C2(C)C have EC50 strictly under 10 µM?
rule not met

Does C=C1CC[C@H]2[C@@H]([C@@H]3O[C@]4(C[C@H](C)[C@H](OC(=O)/C=C/c5ccccc5)[C@@H]4[C@H]1OC(=O)/C=C/c1ccccc1)C(=O)[C@H]3C)C2(C)C have EC50 strictly under 10 µM?
rule met

Does C=C1CC[C@H]2[C@@H]([C@@H]3O[C@]4(C[C@H](C)[C@H](OC(C)=O)[C@@H]4[C@H]1OC(C)=O)C(=O)[C@H]3C)C2(C)C have EC50 strictly under 10 µM?
rule met

Does C=C1CC[C@H]2[C@@H](/C=C(\C)C(=O)[C@@]3(O)C[C@H](C)[C@H](OC(=O)CC)[C@@H]3[C@H]1OC(=O)c1ccccc1)C2(C)C have EC50 strictly under 10 µM?
rule met

Does C=C1CC[C@H]2[C@@H](/C=C(\C)C(=O)[C@@]3(O)C[C@H](C)[C@H](OC(=O)CCCCC)[C@@H]3[C@H]1OC(=O)CCCCC)C2(C)C have EC50 strictly under 10 µM?
rule not met

Does C=C1CC[C@H]2[C@@H]([C@@H]3O[C@]4(C[C@H](C)[C@H](OC(=O)c5ccccc5)[C@@H]4[C@H]1OC(=O)c1ccccc1)C(=O)[C@H]3C)C2(C)C have EC50 strictly under 10 µM?
rule not met

====

- experimental_protocol: Lipophilicity, log P of the compound
- Format: physicochemical
- assay_setup: octanol/water
quantity_name: logP

Reported logP of C=C1CC[C@H]2[C@@H]([C@@H]3O[C@]4(C[C@H](C)[C@H](OC(C)=O)[C@@H]4[C@H]1OC(C)=O)C(=O)[C@H]3C)C2(C)C : 3.4

====

- target: ATP-dependent translocase ABCB1 (Homo sapiens, UniProt P08183)
- Sequence (P08183 whole entry): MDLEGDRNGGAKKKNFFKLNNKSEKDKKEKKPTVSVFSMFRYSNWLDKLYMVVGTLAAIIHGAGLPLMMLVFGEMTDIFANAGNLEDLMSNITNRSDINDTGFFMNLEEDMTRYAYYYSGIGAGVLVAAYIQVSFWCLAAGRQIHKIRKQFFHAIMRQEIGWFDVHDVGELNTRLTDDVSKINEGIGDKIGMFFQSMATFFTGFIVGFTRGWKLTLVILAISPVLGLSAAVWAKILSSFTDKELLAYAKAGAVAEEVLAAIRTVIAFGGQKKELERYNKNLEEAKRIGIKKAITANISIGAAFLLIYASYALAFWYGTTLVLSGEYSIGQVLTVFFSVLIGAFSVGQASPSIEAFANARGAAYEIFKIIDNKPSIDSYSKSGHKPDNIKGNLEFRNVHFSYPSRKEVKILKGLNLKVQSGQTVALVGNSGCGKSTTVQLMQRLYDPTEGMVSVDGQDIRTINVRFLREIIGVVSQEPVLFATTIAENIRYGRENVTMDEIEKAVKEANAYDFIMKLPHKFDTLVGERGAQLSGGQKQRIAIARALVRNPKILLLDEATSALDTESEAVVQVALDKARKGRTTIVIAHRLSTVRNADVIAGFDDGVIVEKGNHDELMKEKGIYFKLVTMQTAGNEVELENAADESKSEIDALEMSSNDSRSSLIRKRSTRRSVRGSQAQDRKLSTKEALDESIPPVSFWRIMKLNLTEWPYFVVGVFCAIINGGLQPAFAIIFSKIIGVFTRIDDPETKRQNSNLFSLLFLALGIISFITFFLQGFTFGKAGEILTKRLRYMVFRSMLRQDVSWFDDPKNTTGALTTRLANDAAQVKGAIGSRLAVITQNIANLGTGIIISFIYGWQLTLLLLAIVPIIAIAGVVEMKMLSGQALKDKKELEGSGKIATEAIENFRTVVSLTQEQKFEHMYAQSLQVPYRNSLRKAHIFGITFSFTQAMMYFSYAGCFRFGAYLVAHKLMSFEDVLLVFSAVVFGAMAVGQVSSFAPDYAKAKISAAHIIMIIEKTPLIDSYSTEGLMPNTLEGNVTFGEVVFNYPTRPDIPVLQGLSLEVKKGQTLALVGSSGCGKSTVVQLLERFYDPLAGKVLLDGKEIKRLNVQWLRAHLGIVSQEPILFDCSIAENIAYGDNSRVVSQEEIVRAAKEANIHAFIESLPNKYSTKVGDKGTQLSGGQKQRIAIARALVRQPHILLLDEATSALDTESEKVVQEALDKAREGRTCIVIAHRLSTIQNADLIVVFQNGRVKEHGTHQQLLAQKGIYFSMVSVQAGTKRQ
- experimental_protocol: Inhibition of P-gp in human MCF7/ADR cells assessed as mean fluorescence intensity of cells at 20 uM pre-treated for 1 hr at 37 degC followed by incubation with Rh123 for 1 hr by flow cytometry (reference value: 108.1 +/- 43.9 No unit)
- Format: cell-based
- assay_setup: nci/adr-res
quantity_name: Flu intensity
Output spec: single numeric token, no unit.

Item COc1ccc(CCN(C)CCCC(C#N)(c2ccc(OC)c(OC)c2)C(C)C)cc1OC (centres undefined) was tested on ATP-dependent translocase ABCB1 (Homo sapiens, UniProt P08183); the reported Flu intensity is 170

Item C=C1CC[C@H]2[C@@H](/C=C(\C)C(=O)[C@@]3(O)C[C@H](C)[C@H](OC(=O)CC)[C@@H]3[C@H]1OC(=O)Cc1cccc3ccccc13)C2(C)C was tested on ATP-dependent translocase ABCB1 (Homo sapiens, UniProt P08183); the reported Flu intensity is 204.6

Item C=C1CC[C@H]2[C@@H](/C=C(\C)C(=O)[C@@]3(O)C[C@H](C)[C@H](O)[C@@H]3[C@H]1OC(=O)Cc1cccc3ccccc13)C2(C)C was tested on ATP-dependent translocase ABCB1 (Homo sapiens, UniProt P08183); the reported Flu intensity is 182.1

Item C=C1CC[C@H]2[C@@H](/C=C(\C)C(=O)[C@@]3(O)C[C@H](C)[C@H](OC(=O)c4ccccc4)[C@@H]3[C@H]1OC(=O)c1ccccc1)C2(C)C was tested on ATP-dependent translocase ABCB1 (Homo sapiens, UniProt P08183); the reported Flu intensity is 204.8
